assay_system: Serine protease 1 (Bos taurus, UniProt P00760)
Sequence (P00760 whole entry): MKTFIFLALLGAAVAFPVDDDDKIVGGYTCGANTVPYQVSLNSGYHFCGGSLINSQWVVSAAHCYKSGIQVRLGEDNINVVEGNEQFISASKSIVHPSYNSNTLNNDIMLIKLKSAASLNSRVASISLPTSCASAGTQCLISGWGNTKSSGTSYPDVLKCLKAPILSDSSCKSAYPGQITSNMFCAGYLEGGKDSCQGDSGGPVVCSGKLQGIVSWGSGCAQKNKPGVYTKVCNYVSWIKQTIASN
Across several publications, the following Ki results were reported for Serine protease 1 (Bos taurus, UniProt P00760).
Label rule met when Ki is strictly below 2000 nM; otherwise label rule not met.

# example entries with known answers
Q) Lab log: compare recorded Ki with 2000 nM; is it strictly lower for "N=C(N)c1cccc(Oc2nc(Oc3cccc(C(=N)N)c3)c(F)cc2F)c1" ?
A) rule met

Q) Lab log: compare recorded Ki with 2000 nM; is it strictly lower for "N=C(N)c1ccc(Oc2cccc(Oc3ccccc3C(=N)N)n2)cc1" ?
A) rule met

Q) Lab log: compare recorded Ki with 2000 nM; is it strictly lower for "N=C(N)c1cccc(C[C@H](NS(=O)(=O)c2ccc3ccccc3c2)C(=O)N2Cc3ccccc3C=C2C(=O)O)c1" ?
A) rule not met

Q) Lab log: compare recorded Ki with 2000 nM; is it strictly lower for "N=C(N)c1ccc(Cn2ccc3cc(C(=N)N)ccc32)cc1" ?
A) rule not met

Now consider the entry below.
Q) Lab log: compare recorded Ki with 2000 nM; is it strictly lower for "Cc1c(F)c(Oc2cccc(C(=N)N)c2)nc(N(C)c2cccc(C(=N)N)c2)c1F" ?
A) rule met

* * *

Across several publications, the following Ki results were reported for Serine protease 1 (Bos taurus, UniProt P00760).

Worked set:
response.value for "COc1ccc2ccc(S(=O)(=O)N(CC(N)=O)[C@H]3CCN(Cc4cccc(C(=N)N)c4)C3=O)cc2c1" (field: Ki) = 1 µM

response.value for "CC(=N)N1CCC(N(CC(N)=O)c2ccc3nc(C)n(Cc4ccc5ccc(C(=N)N)cc5c4)c3c2)CC1" (field: Ki) = 0.028 µM

response.value for "N=C(N)c1cccc(CN2CC[C@H](NS(=O)(=O)c3ccc4ccc(N)cc4c3)C2=O)c1" (field: Ki) = 1.3 µM

response.value for CCCCCC(NC(=O)[C@@H]1CCCN1C(=O)[C@@H](NC(=O)OCc1ccccc1)C(c1ccccc1)c1ccccc1)B1O[C@@H]2CC3CC(C3(C)C)[C@]2(C)O1 (some centres undefined) (field: Ki) = 0.45 µM

response.value for "N=C(N)c1cccc(C[C@H](NS(=O)(=O)c2ccc3ccccc3c2)C(=O)N2CCNCC2)c1" (field: Ki) = 0.22 µM

Parameters: items (list). Returns: Ki for each item.
1. Cc1ccc(CS(=O)(=O)Nc2ccc(C)n(CC(=O)NCC3CCc4n[nH]cc4C3)c2=O)cc1 (centres undefined)
2. Cc1ccc(S(=O)(=O)N[C@@H](Cc2cccc(C(=N)N)c2)C(=O)N2CCCC2)cc1
3. Cc1c(F)c(Oc2cccc(C(=N)N)c2)nc(Oc2cccc(N(C)C)c2)c1F

A)
1: > 300 µM; 2: 2.2 µM; 3: 1.9 µM

response.value for "Cc1c(F)c(Oc2cccc(CN)c2)nc(Oc2cccc(C(=N)N)c2)c1F" (field: Ki) = 2.9 µM

* * *

Across several publications, the following Ki results were reported for Serine protease 1 (Bos taurus, UniProt P00760).
assay_system: Serine protease 1 (Bos taurus, UniProt P00760)
Sequence (P00760 whole entry): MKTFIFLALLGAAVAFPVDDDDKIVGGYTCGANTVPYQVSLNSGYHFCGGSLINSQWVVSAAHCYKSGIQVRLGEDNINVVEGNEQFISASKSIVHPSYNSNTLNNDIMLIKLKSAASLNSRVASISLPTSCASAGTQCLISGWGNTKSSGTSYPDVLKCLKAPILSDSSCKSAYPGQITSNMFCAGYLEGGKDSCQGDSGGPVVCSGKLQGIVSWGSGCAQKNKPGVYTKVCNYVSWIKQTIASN
Label Fulfilled when Ki is strictly below 800 nM; otherwise label Not fulfilled.

# example entries with known answers
Q) Lab log: compare recorded Ki with 800 nM; is it strictly lower for "N=C(N)c1cccc(CN2CC[C@H](NS(=O)(=O)c3cccc4ccccc34)C2=O)c1" ?
A) Not fulfilled

Q) Lab log: compare recorded Ki with 800 nM; is it strictly lower for "CN1CCN=C1c1cccc(Oc2nc(Oc3cc(C(=N)N)ccc3O)c(F)c(N(C)CC(=O)O)c2F)c1" ?
A) Fulfilled

Q) Lab log: compare recorded Ki with 800 nM; is it strictly lower for "Cc1cccc(-c2ccc(S(=O)(=O)N[C@H]3CCN(Cc4cccc(C(=N)N)c4)C3=O)cc2)c1" ?
A) Not fulfilled

Q) Lab log: compare recorded Ki with 800 nM; is it strictly lower for "CN1CCN=C1c1cccc(Oc2nc(Oc3cc(C(=N)N)ccc3O)c(F)c(OC3CCN(CC(=O)O)CC3)c2F)c1" ?
A) Fulfilled

Q) Lab log: compare recorded Ki with 800 nM; is it strictly lower for "CN(C)C(=O)c1cccc(Oc2nc(Oc3cc(C(=N)N)ccc3O)c(F)c(OC3CCN(CC(=O)O)CC3)c2F)c1" ?
A) Fulfilled

Q) Lab log: compare recorded Ki with 800 nM; is it strictly lower for CN(C)c1cccc2c(S(=O)(=O)NC(CCCN3CCN=C3N)C(=O)N3CCCCC3)cccc12 (centres undefined) ?
A) Not fulfilled

Q) Lab log: compare recorded Ki with 800 nM; is it strictly lower for "Cc1c(F)c(Oc2cccc(CC(N)=O)c2)nc(Oc2cccc(C(=N)N)c2)c1F" ?
A) Not fulfilled

---
Q) Lab log: compare recorded Ki with 800 nM; is it strictly lower for N=C(N)NCCCC1NC(=O)CNC(=O)c2cc(ccc2CBr)NC1=O (centres undefined) ?
A) Not fulfilled

* * *

Across several publications, the following pKi results were reported for Serine protease 1 (Bos taurus, UniProt P00760).
Answers are plain numbers, as −log10 of the molar value.

Worked set:
response.value for "N=C(N)c1cccc(C[C@H](NS(=O)(=O)c2ccc3ccccc3c2)C(=O)N2CCN(C(=O)CO)CC2)c1" (field: pKi) = 5.96

response.value for "Cc1c(F)c(Oc2cccc(C(=N)N)c2)nc(Oc2cc(C(=O)N(C)C)ccc2O)c1F" (field: pKi) = 5.43

response.value for "N=C(N)c1cccc(C[C@H](NS(=O)(=O)c2ccc3ccccc3c2)C(=O)N2CCCCCC2)c1" (field: pKi) = 6.26

response.value for CCCCCC(NC(=O)[C@@H]1CCCN1C(=O)[C@H](Cc1ccccc1)NC(=O)OCc1ccccc1)B1O[C@@H]2CC3CC(C3(C)C)[C@]2(C)O1 (stereo in doubt; 3) (field: pKi) = 6.49

response.value for "CN=C(N)c1ccc(C[C@H](NS(=O)(=O)c2ccc3ccccc3c2)C(=O)N2CCCCCC2)cc1" (field: pKi) = 3.26

response.value for "N=C(N)c1ccc(/C=C2/CCCC/C(=C/c3ccc(C(=N)N)cc3)C2=O)cc1" (field: pKi) = 7.48

Parameters: items (list). Returns: pKi for each item.
1. N=C(N)c1ccc(O)c(/C=C/CN(C(=O)CCC(=O)O)c2ccc(OC3CCN(CC(=O)O)CC3)c(C(F)(F)F)c2)c1
2. N=C(N)c1cccc(C2=NO[C@H](Cn3cnnn3)[C@H]2C(=O)Nc2ccc(-c3ccccc3S(N)(=O)=O)cc2)c1
3. CN(C)C(=O)c1cccc(Oc2cc(C(=O)O)cc(Oc3cc(C(=N)N)ccc3O)n2)c1
4. NN=C(N)c1ccc(C[C@@H](NC(=O)CNS(=O)(=O)c2ccc3ccccc3c2)C(=O)N2CCCCC2)cc1
5. N=C(N)NCc1ccc(C2CC/C(=C/I)OC2=O)cc1 (configuration not stated)
6. CCCCCC(=O)N1CCN(C(=O)C(Cc2cccc(C(=N)N)c2)NS(=O)(=O)c2ccc3ccccc3c2)CC1 (configuration not stated)
7. CC1(C)C2CC1[C@]1(C)OB(C(Cc3ccccc3)NC(=O)[C@@H]3CCCN3C(=O)[C@H](Cc3ccccc3)NC(=O)OCc3ccccc3)O[C@@H]1C2 (some centres not stated)
8. CN(C)c1cccc2c(S(=O)(=O)NC(CCCN=C(N)N)C(=O)N3CCCCC3)cccc12 (configuration not stated)

A)
[6.06, 6.74, 6.82, 3.72, 7.10, 7.19, 6.82, 5.63]

Parameters: items (list). Returns: pKi for each item.
1. Cn1ccnc1-c1cccc(Oc2cc(C(=O)O)cc(Oc3cc(C(=N)N)ccc3O)n2)c1
2. N=C(N)N1CCC[C@@H](CNC(=O)[C@@H](Cc2ccc([N+](=O)[O-])cc2)NS(=O)(=O)c2ccc3ccccc3c2)C1
3. CC1(C)C2CCC1(CCS(=O)(=O)NC(Cc1cccc(C(=N)N)c1)C(=O)N1CCN(S(C)(=O)=O)CC1)C(=O)C2 (stereo in doubt; 30)

A)
[6.19, 4.92, 6.36]
